// provenance: PubChem BioAssay (EPA / NIEHS)

assay: CCTE_Shafer_MEA_dev_burst_rate: CCTE's Neural Network Formation Assay for Burst Rate, Shafer Lab (AID 2284042)
Calls of active or inactive are those of the source. Rule for the calls: active = hit-call score of the fitted dose curve at least 0.9, where 1 is the maximum; inactive = score below 0.9.
quantity: outcome

The examples below pair each entry with its known result.
Nc1nc2ncc(CNc3ccc(C(=O)N[C@@H](CCC(=O)O)C(=O)O)cc3)nc2c(=O)[nH]1: inactive
NC(=O)NO: inactive
COc1ccc(-n2nc(C(F)F)cc2-c2ccc(S(C)=O)cc2)cc1 (configuration not stated): inactive
CCC(C)(C)C(=O)O[C@H]1C[C@@H](C)C=C2C=C[C@H](C)[C@H](CC[C@@H]3C[C@@H](O)CC(=O)O3)[C@H]21: inactive
Cn1c(=O)c2c(ncn2C)n(C)c1=O: inactive
O=C1CCC(N2C(=O)c3ccccc3C2=O)C(=O)N1 (configuration not stated): inactive

I am curious: what outcome value has been reported for `CC[C@H](C)C(=O)O[C@H]1C[C@@H](C)C=C2C=C[C@H](C)[C@H](CC[C@@H]3C[C@@H](O)CC(=O)O3)[C@H]21` ?
inactive

---

experiment: CCTE_Mundy_HCI_Cortical_Synap_Neur_Matur_BPCount: CCTE's Synaptogenesis and Neurite Maturation Assay in rat cortical cells for Branch Point Count, Mundy Lab (AID 2284211)
Activity calls are given as the source filed them. How the source made its calls: active means hit-call score of the fitted dose curve at least 0.9, where 1 is the maximum; inactive means score below 0.9.
The reply should name one outcome from active, inactive

Recorded test call requested for `O=P(OC(CCl)CCl)(OC(CCl)CCl)OC(CCl)CCl`
active

Field: outcome | Entry: `NC(=O)NO`
inactive

Hi, do you know how `CC[C@H]1OC(=O)[C@H](C)[C@@H](O[C@H]2C[C@@](C)(OC)[C@@H](O)[C@H](C)O2)[C@H](C)[C@@H](O[C@@H]2O[C@H](C)C[C@H](N(C)C)[C@H]2O)[C@](C)(O)C[C@@H](C)C(=O)[C@H](C)[C@@H](O)[C@]1(C)O` came out in this test?
inactive

What did the test return for `Cn1c(=O)c2c(ncn2C)n(C)c1=O` ?
inactive

---

read-out: E-selectin (Homo sapiens); assay: BSK_3C_Eselectin: BioMAP Diversity Plus: 3C Assay for Eselectin Biomarker Activity (AID 2283015); details: primary human endothelial cells (HUVEC); actives raise or lower the signal;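 note: cell surface E-selectin protein quantified by ELISA 24 h after dosing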
Calls of active or inactive are those of the source. The calls were made as follows: active = hit-call score of the fitted dose curve at least 0.9, where 1 is the maximum; inactive = score below 0.9.
quantity: outcome

CCCN(C1CCN(C(=O)C2CCNCC2)CC1)[C@@H]1CCc2ccc(OC)cc2C1: inactive
CCOCCOCCOCCO: inactive
O=C1CCC(N2C(=O)c3ccccc3C2=O)C(=O)N1 (stereo not drawn): inactive

---

experiment: TOX21_p53_BLA_p2_viability: Viability Assessment in the Tox21 HCT-116 p53 Agonism Beta-lactamase Assay, Phase 2 (AID 2283591);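 note: compound exposure lasted 16 h at 37 °C; actives lower the ATP signal meaning cytotoxicity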
Records with an inconclusive call do not appear. Activity calls are given as the source filed them. The calls were made as follows: active = hit-call score of the fitted dose curve at least 0.9, where 1 is the maximum; inconclusive = response in the unintended direction; inactive = score below 0.9.
The reply should be one of these categories: active, inactive

Would you mind telling me which call this test gave `COc1cccc(-c2ccc(/C=C\CN3CCCCCC3)cc2Cl)c1` ?
active

Lab log entry: `COc1ccc(/C=C/S(=O)(=O)NC(=O)c2ccc(C)cc2Cl)cc1` — outcome as called in the assay?
inactive

Could you check what this test reported for CC(O)CN(CCN(CC(C)O)CC(C)O)CC(C)O (configuration not stated) ?
inactive

Which result was noted for this compound in the test: `C=CC(=C)CCC=C(C)C`
inactive

Would you mind telling me which call this test gave CCOC(=O)c1ccc(C2CCC(NC[C@H](O)COc3ccc(O)c(NS(C)(=O)=O)c3)CC2)cc1 (some centres not stated) ?
active

Hello, I am checking results. What call was entered for CNS(=O)(=O)c1cc(C(=O)N2CCC(CCN3C4CCC3CC(n3c(C)nc5ccccc53)C4)(c3cccc(F)c3)CC2)c(Cl)cc1F (configuration not stated) ?
active

For `CCn1nc(Cc2ccccc2)cc1C1CCN(C[C@H]2C[C@H](N(C)[C@@H](C(=O)O)C(C)C)C[C@@H]2c2cccc(F)c2)CC1` , what call appears in the results of this test?
inactive

Entry `CCOc1cccc(-n2cc(C(=O)N3CCN(c4cc(C(=O)O)c5ccccc5c4)CC3)nc2-c2ccc(C)cc2)c1` : call = ?
active

# lookup: test call for `CCN(C(=O)c1cc(C)cc(OC[C@H](C)Nc2ccncc2)c1)C(C)C`
inactive

For `CC(C)=CCC/C(C)=C/CO` , which call appears in the assay record?
inactive

// return assay outcome for COc1ccc(-n2nc(C(F)F)cc2-c2ccc(S(C)=O)cc2)cc1 (configuration not stated)
inactive

Which outcome did this test record for the compound `CCCCCCCCCCCCc1ccccc1` ?
inactive

Which outcome was assigned to `CCc1cc(SCc2sc(-c3ccc(C(F)(F)F)cc3)nc2CN2CCN(c3ccc(OC)cc3)CC2)ccc1OCC(=O)O` in this test?
active

Hi team, can someone confirm the assay call for `CN(C)c1ccc(Cc2ccc(N(C)C)cc2)cc1` ?
inactive

// return assay outcome for `CC1=CC(=O)CC(C)(C)C1`
inactive

Which outcome was assigned to `CC(C)c1cccc(C(C)C)c1N1C(=O)c2ccc(O)cc2C1=O` in this test?
active

Kindly provide the recorded test outcome for the following compound: `CC(=O)c1ccc2c(c1)[C@H](NC(=O)c1ccc(F)cc1)[C@@H](O)C(C)(C)O2`
inactive

Given `CCCN(C1CCN(C(=O)C2CCNCC2)CC1)[C@@H]1CCc2ccc(OC)cc2C1` , state the outcome it received in this test.
inactive

Hello, I am checking results. What call was entered for `Oc1ccc2c(c1)-c1ccccc1C2` ?
inactive

How did this test come out for O=C1CCC(N2C(=O)c3ccccc3C2=O)C(=O)N1 (configuration not stated) ?
inactive

Test call for this compound, please: `CCCCCCCCCCCCCCCO`
inactive

Check the results log: what was the call for CC/C(=C\C(=N/O)C(N)=O)C(C)[N+](=O)[O-] (configuration not stated) ?
inactive

---

experiment: BSK_LPS_SRB: Viability Assessment in the BioMAP Diversity Plus: LPS Assay (AID 2283079); conditions: primary human HUVEC with PBMC;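 note: total protein by sulforhodamine B absorbance as a cytotoxicity measure; measured one day after compound addition; fitted in both directions against DMSO so loss or gain of signal counts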
Active and inactive are the calls of the source. Rule for the calls: active = hit-call score of the fitted dose curve at least 0.9, where 1 is the maximum; inactive = score below 0.9.
Write down the outcome that applies. Available outcomes: 1 (yes) (active), 0 (no) (inactive)

Look up the recorded call for `O=C1CCCCCN1` in this test.
0 (no)

Could you kindly confirm the outcome this assay logged for `O=C(O)c1cccc(Oc2ccccc2)c1` ?
0 (no)

Lab log entry: `Oc1ccc2c(c1)-c1ccccc1C2` — outcome as called in the assay?
1 (yes)

Given `CCCCCCc1ccc(O)cc1O` , state the outcome it received in this test.
1 (yes)

How did this test come out for `CC(C)CCCCCCOC(=O)c1ccc(C(=O)OCCCCCCC(C)C)c(C(=O)OCCCCCCC(C)C)c1` ?
0 (no)

Can you look up the reported call for `COC(=O)CC(=O)OC` for me?
0 (no)

// return assay outcome for O=C(O)CC(O)C(=O)O (configuration not stated)
0 (no)

Which outcome was entered for the molecule `C=CC(=C)CCC=C(C)C` in this test?
0 (no)

Write down the call the test reported for this molecule. Item: `Cc1ccc(S(=O)(=O)O)cc1C`
0 (no)

# fetch the recorded call for `Cn1c(=O)cc(Oc2ccc(F)cc2F)c2cnc(NCC(C)(C)O)nc21` here
0 (no)

What classification did `C1N2CN3CN1CN(C2)C3` end up with in this test?
0 (no)

Which outcome did this test record for the molecule `COc1ccc(/C=C/S(=O)(=O)NC(=O)c2ccc(C)cc2Cl)cc1` ?
0 (no)

Write down the call the test reported for this molecule. Item: `CCNc1ccccc1`
0 (no)

# outcome recorded in this test, key = `Cn1c(=O)c2c(ncn2C)n(C)c1=O`
0 (no)

Hey, what did the test say about `CCCN(C1CCN(C(=O)C2CCNCC2)CC1)[C@@H]1CCc2ccc(OC)cc2C1` ?
0 (no)

Test call for this molecule, please: `COc1cccc(-c2ccc(/C=C\CN3CCCCCC3)cc2Cl)c1`
1 (yes)

Hi, sorry to bother you, what did the test record for `CC(C)c1cccc(C(C)C)c1N1C(=O)c2ccc(O)cc2C1=O` ?
1 (yes)

Dear all, I need the recorded test outcome for `COCCOc1cc2cc(C(=O)NC3CCN(C(C)C)CC3)n(CC(=O)Nc3ccc(Cl)cn3)c2cn1` , thank you.
0 (no)

Look up the recorded call for `Cc1ccc(N)cc1O` in this test.
0 (no)

Test call, this molecule: `CCOCCO`
0 (no)

What was the test verdict on `Cc1[nH]cnc1C[C@H]1CCc2c(C)c3ccccc3n2C1=O` ?
1 (yes)

// outcome(item) with item = `COc1ccc2sc(C(=O)Nc3nnn[nH]3)c(OC(C)C)c2c1`
1 (yes)

Give the logged outcome of this assay for the following molecule: `CCCCCCCCCCCCc1ccccc1`
0 (no)

# outcome recorded in this test, key = `CCn1nc(Cc2ccccc2)cc1C1CCN(C[C@H]2C[C@H](N(C)[C@@H](C(=O)O)C(C)C)C[C@@H]2c2cccc(F)c2)CC1`
0 (no)

State the result this test recorded for `COC(=O)c1ccccc1O` .
0 (no)

Returns: the outcome recorded for `CCOC(=O)CC(CC(=O)OCC)(OC(C)=O)C(=O)OCC` in this assay.
0 (no)

Would you mind telling me which call this test gave `CC(C)CCCCCCCOC(=O)CCCCC(=O)OCCCCCCCC(C)C` ?
0 (no)
